System: A549
Assay: Photocytotoxicity against human A549 cells assessed as growth inhibition at 3.75 J/cm'2 irradiation for 30 mins followed by drug treated for 72 hrs by MTT assay
Format: functional
Conditions: A549, light or radiation study
Label key: Fulfilled means GI50 under 4 µM; Not fulfilled means GI50 of 4 µM or more.

1. COc1ccc(-n2ncc3c2ccc2cc(S(=O)(=O)c4ccccc4)c(=O)n(C)c23)cc1: Fulfilled
2. COc1nc2c(cc1S(=O)(=O)c1ccccc1)CCc1c-2cnn1-c1ccc(Cl)cc1: Fulfilled
3. O=c1[nH]c2c(cc1S(=O)(=O)c1ccccc1)CCc1c-2cnn1-c1ccccc1: Not fulfilled
4. COc1nc2c(ccc3c2cnn3-c2ccc(Cl)cc2)cc1S(=O)(=O)c1ccccc1: Fulfilled
5. CCOC(=O)c1cc2c(nc1OC)-c1cnn(-c3ccc(OC)cc3)c1CC2: Not fulfilled

Say whether its GI50 is strictly beneath 4 µM. Entry: "Cn1c2c(cc(S(=O)(=O)c3ccccc3)c1=O)CCc1c-2cnn1-c1cccc(Cl)c1" Not fulfilled

Could you please tell me whether GI50 recorded for "COc1nc2c(cc1S(=O)(=O)c1ccccc1)CCc1c-2cnn1-c1ccccc1" is less than 4 µM? Fulfilled

Is the reported GI50 for "Cn1c2c(cc(S(=O)(=O)c3ccccc3)c1=O)CCc1c-2cnn1-c1ccccc1" strictly below 4 µM? Not fulfilled

Just wondering, is GI50 of "O=c1[nH]c2c(cc1S(=O)(=O)c1ccccc1)CCc1c-2cnn1-c1cccc(Cl)c1" below 4 µM? Not fulfilled

Regarding "COc1ccc(-n2ncc3c4[nH]c(=O)c(S(=O)(=O)c5ccccc5)cc4ccc32)cc1" , kindly confirm whether its GI50 is beneath 4 µM. Not fulfilled
